# PROTOCOL_NOTES: yeast display, Sf9 membrane polyspecificity reagent, FACS + sequencing; frameworks hold sequencing errors
ATTRIBUTE_MEASURED: polyreactivity (PSR sort gate)

| QUERY_SEQUENCE | ATTRIBUTE_MEASURED | RESULT |
| --- | --- | --- |
| QVQLVESGGGLVQAGGSLRLSCAASGFTFRWYAMGWYRQAPGKERELVAAISSSGGSTYYADSVKGRFTISRDNAKNTVYLQMKSLKPEDTAVYYCNTDANYLTNTIYDYWGQGTQVTVSS | polyreactivity (PSR sort gate) | high polyreactivity |
| QVQLVESGGGLVQAGGSLRLSCAASGSTFVYNTMGWSRQAPGKERELVADITWRGASTYYADSVKGRFTISRDNAKNTVYLQMNSLKPEDTAVYYCAADYYSATGSYAYDYWGQGTQVTVSS | polyreactivity (PSR sort gate) | low polyreactivity |
| QVQLVESGGGLVQAGGSLRLSCAASGGTFYTNVMGWYREAPGKERELVAAITRSGGSTHYADSVKGRFTISRDNAKNTVYLQMNSLKPEDTAVYYCAVGSPYYDGMDYWGQGTQVTVSS | polyreactivity (PSR sort gate) | low polyreactivity |
| QVQLVESAGGLVQAGVSLRISCAASGSTIRHYAMGWYRQAPRKERELVAAISSGARTYYADSEKGRFTISRDNAKNTVYLQMNSLKPEDTAVYYRAARYNGYANPYYYWGQGTQVTVSS | polyreactivity (PSR sort gate) | high polyreactivity |
| QVQLVESGGGLVQAGGSLRLSCAASGSIFSYYAMGWDRQAPGKERELVASISWNGTSTYYADSVKGRFTISRDNAKNTVYLQMNSLKPEDTAVYYCNGRFIYRGTYDYWGQGTQVTVSS | polyreactivity (PSR sort gate) | low polyreactivity |
| QVQLVESGGGLVQAGGSLRLSCAASGFIFFGEYVRGWYRQAPRKEREFVAAITDSDGSTYYADSVKGRFTISRDNAKNTVYLQMNSLKPEDTAVYYCAAERVYSDIDYWGKGTQVTVSS | polyreactivity (PSR sort gate) | low polyreactivity |
| QVQLVESGGGLVQAGGSLRLSCAASGSTFPKYAMGWYRQAPGKERELVASISVTTGSTYYADSVKGRFTISRDNAKNTVYLQMNSVKPEDTAVYYCAARRGWGDDYWGQGTQVTVSS | polyreactivity (PSR sort gate) | high polyreactivity |
| QVQNVDSGGVLVQAGGSLRLSCEASGRIRYYAMGWYRQAPGKERELVAAISSRGGSTYYADSVKGRFTISRDNAKNTVYLLLNSLKPEDTAVYYCAKGGYWGHGTQVTVSS | polyreactivity (PSR sort gate) | high polyreactivity |
| QVQLVESGGGLVQAGGSLRLSCAASGRIFLGYAMGRYRQAPGKERELVAAITFSGGSTYYADSVKGRFTISRDNAKNTVYLQMNSLKPEDTAVYYCAAPRLRRTYPRNRYDYWGQGTQVTVSS | polyreactivity (PSR sort gate) | low polyreactivity |
| QVQLVESGGGLVQAGGSLRLSCAASGRTFYSNSMGWYRQAPGKERELVATISWRGGSTYYADSVKGRFTISRDNAKNTVYFQMHSLKPEDTAVYYCAAGYYPYWGQGTQVTVSS | polyreactivity (PSR sort gate) | low polyreactivity |
| QVQLVESGGGLVQAGGSLRLSCAASGFTFWYYAMGWYRQAPGKEREFVASISWNGGRTYYADSVKGRITISRDNAKNTVYLQMNSLKPEDTAVYYCATRVIYSFTDLKGDYWGQGTLVTVSS | polyreactivity (PSR sort gate) | high polyreactivity |

---

# PROTOCOL_NOTES: yeast display, Sf9 membrane polyspecificity reagent, FACS + sequencing; frameworks hold sequencing errors
ATTRIBUTE_MEASURED: polyreactivity (PSR sort gate)

| QUERY_SEQUENCE | ATTRIBUTE_MEASURED | RESULT |
| --- | --- | --- |
| QVQLVESGGGLGQAGGSLRLSCAASGFTFGGNGMGWYRPAPGKERELVASISWGGGSTYYADSVKGRFRISRDKAKNTVYLQMNSLKREDTAVYDCNADRYYWSSRPTSWFNYWGQGTQVTVSS | polyreactivity (PSR sort gate) | high polyreactivity |
| QVQLVESGGGLVQAGGSLRLSSAASGFIFIIYAMGWYRPAPGKERELVAGIRWSGGSTYYADSVKGRFTISRDNAKNTVYLQMNSLKPEDTAVYYCNKDRGSLTLYTYDYWGQGTQVTVSS | polyreactivity (PSR sort gate) | low polyreactivity |
| QVQLVESGGGLVQAGGSLRLSCAASGRIFYGYTMGWYRQAPGKERELVASITIRGSRTYYADSVKGRFTISRDNAKNTVYLQMNSLKPEDTAVYYCAADFVPARTVHRYDYWGQGTQVTVSS | polyreactivity (PSR sort gate) | low polyreactivity |
| QVQLQESGSGLVQAGGSLRLSCAASGNISQYNDIGWYRQAPGKEREPVATINSGSITYYADSVKGRLTISRDNAKNTVYLEMNSLKPEDTAVYYGAVKQHGFVYLEYWGQGTQVTVSR | polyreactivity (PSR sort gate) | high polyreactivity |
| QVQHVESGGGLVQAGGSLRLSCAASGITLNSYAMGWYRQAPGTERELVAAISSDGTYYADSVKGRFTISRDNAKNTVYLQMNSLKPEDTAVYYCAAERNHGLVGSESVGRNDYWGQGTQVTVSS | polyreactivity (PSR sort gate) | low polyreactivity |

---

# PROTOCOL_NOTES: yeast display, Sf9 membrane polyspecificity reagent, FACS + sequencing; frameworks hold sequencing errors

| QUERY_SEQUENCE | polyreactivity (PSR sort gate) |
| --- | --- |
| QVQLVESGGGLVQAGGSLRLSCAASGRTSDGYAMGWYRPAPGKERELVAGITEGGGDTYYADSVKGRFTISRDNAKNTVYLQMNSLKPEDTAVYYCNAVEGSRLPYDYWGQGTQVTVSS | low polyreactivity |
| QVQLVESGGGLVQAGGSLRLSCADSGFNFKYYAMGWYRQAPGKERELVATITSRGGSTYYADSVKGRFTISRDNAKNTVYLQMNSLKPEATAVYYCNARSSSPGKYGYWGQGTQVTVSS | high polyreactivity |
| QVQLVESGGGLVQAGGSLRLSCAASGRIFDYNAMGWYRQVPGKERELVAAITKDDGSTYYADSVKGRFTISRDNAKNTVYLQMTSLKPEDTAVYYCAADFYWTYVDIWYDYWGHGTQVTVSS | low polyreactivity |
| QVQLVESGGGLVQAGGSLRLSCAASGIIFRYYAMGWYRQAPGKERELVASITARSGSTYYADSVKGRFTISRDNAKNTVYLQMNSLKPEDTAVYYCAKSGKPARYYYWGQGTQVTVSS | high polyreactivity |
| QVQLVESGGGLVQAGGSLRLSCAASGSIFGGYAMGWYRQAPGKERELVAAISVSDDITYYADSVKGRFTISRDNAKNTVYLQMNSLKPEDTAVYYCAAEPDTNYVVRYDYWGQGTQVTVSS | high polyreactivity |

---

# PROTOCOL_NOTES: yeast display, Sf9 membrane polyspecificity reagent, FACS + sequencing; frameworks hold sequencing errors

| QUERY_SEQUENCE | polyreactivity (PSR sort gate) |
| --- | --- |
| QVQLVESGGGLVQAGGSLRLSCAASGSIYWYAMGWYRQAPGKERELVAAISRRGGSTYYADSVKGRFTISRDNDKNTVYLQMNSLKPEDTAVYYCAVGIYGEYDYWGQGTQVTVSS | high polyreactivity |
| QDQLVESGGGLVQAGGSLRLICAASGFTITTYAMGWYRQAPGKERELVASISYSGGRTYYADSVKGRFTISRDNAKNTVYLQLNSLKPEDTAVYFCAAVGVRNRAPSRGGYWGQGPQVTVSS | high polyreactivity |

---

# PROTOCOL_NOTES: yeast display, Sf9 membrane polyspecificity reagent, FACS + sequencing; frameworks hold sequencing errors
ATTRIBUTE_MEASURED: polyreactivity (PSR sort gate)

| QUERY_SEQUENCE | RESULT |
| --- | --- |
| QVQLVESGGGLVQAGGSLRLSCAASGRTFGPNAMGWYRQAPGKERELVAAISGSGGSTYYADSVKGRFTISRDNAKNTVYLQMYSLKPEDTAVYYCAARHRQQKLDYWGQGTQVTVSS | high polyreactivity |
| QVQLVESGGGLVQAGGSLRLSCAASGRTFPDYAMGWYRQAPGKERELVARISYSGGSTSYADSVKGRFTISRDNAKNTVYLQMNSLKPEDTAVYYCNRETAYAVGRFEYCGQGTQVTVSS | low polyreactivity |
| QVQLVESGGGLVQAGGSLRLCCAASGIIFQRNDMGWYRQAPGKERELVANIRDGGITYADSVKGRFTISRDNAKNTVYLQMNSLKPEDTAVYYCARDDTSPGYGDQSSIAAYYYWGQGTQVTVSS | low polyreactivity |
| QVQLVESGGGLVQAGGSLRLSCAASGSIFGYYALGWYRQAPGKERELVAAISRSGGSTYYADSVKGRFTISRDNAKNTVYLQMNSLKPEDTAVYYCAADDYPYGNYYWGQGTQVTVSS | high polyreactivity |
| QVQLVESGGGLVQAGGSLRLSCAASGFTSYTNAMGWYRQAPGKERELVAAIDVSGSDTYYADSVKGRFTISRDNAKNTVYLQMNSLKPEDTAVYYCAAEYYSYYYQGYDYWGQGTQVTVSS | high polyreactivity |
| QVQLVESGGVLVQAGGSLRLSCAASGLDYYAIGWYRQAPGKERELVAAIDWSGVSTYYADSVKGRFTISRDNAKNTVYLQMNSLKPEDTAVDYCAALYYGWPRVSYGLGEYGYWGQGTQVTVSS | low polyreactivity |
| QVQLVESVVGLVQARVSLRLSCASSGFIFRFYTMGWYIQPPGKESEFVPAISWSGTSTYYADSVKGRFTISRDNAKNTVYLQMNSLKPEDTAVYYCAAGYKWKGTVWIMDYWGQGTQVTVSS | high polyreactivity |
| QVQLVESGGGLVQAGGSLSLSCAASGFTITSYAMGWYRQAPGKERELVAAINSGGSTNYADSVKGRFTISRDNAKNTVYLQMNSLIPEDNAVYYCAAKRRSYRITYVGVGYKYGYWGLGTQVTVSS | high polyreactivity |
| QVQLVESGGGLVQAGGSLRLSCAASGRTFYYNAMGWYRQAPGKEREMVADINWSGVRTYYADSVKGRFTISRDNAKNTVYLQMNSLKPEDTAAYYCAAERLLYKHYEEDYWGQGTQVTVSS | low polyreactivity |
| QVQLVESGGGLVQAGGSLRLSCAASGRTFVYNAMGWYRQAPGKERELVAAITRSGGRTYYADSVKGRFTISRDNAKNTVYLQMNSLKPEDTAVYYCSARISRWYAYGTDIKEGDYWGQGTQVTVSS | low polyreactivity |
| QVQLVESGRGLVQAGGSLRLSCAASGSTLATYTMGWYRQAPGKERELVPAISFGGSTYYADSVKGRFTISRDNAKNTVYLQMNSLKPEDTAVYYCAVYGDSYWGAYYYSDGYWGQGTQVTVSS | low polyreactivity |
| QVQLVESGGGLVQAGGSLRLSCAASGRIFGAYAMGWYRQAPGKERELVAAITSRGGNTYYADSVKGRFTISRDNAKNTVDLQMNSLKPEDTAVYYCAARHDKRRQYYFGQSAFDYWGQGTQVTVSS | low polyreactivity |
| QVQLVESGGGLVQAGGSLRISCAASGSTFWYYAMGRYREAPGKERELVAAIRRGGSTYYADSVKGRFTISRDNAKNTVYLQLNSLKPDDTAGYYCAAERPYKTFGYGDWGQGTQVTVSS | high polyreactivity |
| QVQLVESGGGLVQAGGSLRLSCAASGRTFHPYAMGWYRQAPGKERELVAAITSIGGSTFYADSVKGRFTISRDNAKNNVYLQLTSLKPEDTAVYFCNAESSYYYGTAAYEYWGQGTQVSVSS | low polyreactivity |
| QVQLVESGGGLVQAGGSLRLSCAASGSTFDGYAMGWYTQAPGKERELVAAISKNGGRTYYADSVKGRFTISRDNAKNTVYLQMNSLKPEDTAVYYCAIDIIKYDYDYWGQGTQVTVSS | low polyreactivity |
| QVQLVESGGRLVQAGGSLRLSCAASGSTIAYNAMGWYIQAPGKERELVAANSKGGGSTYYADSVKGRFTISRDNAQNTVYLAMNSLKPAETAVYYCAAVSGYSTGGSRYRYNYWGQGTQVTVSS | high polyreactivity |
| QVQLVESGGGLVQAGGSLRISCAASGRIFGTNAMGWYRQAPGKERELVADITSGGSTNYADSVKGRFTISRDNAKNTVYLQMNSLKPEDTAVYYCAAVVIGDLRWYRDEYWGQGTQVTVSS | low polyreactivity |
| QVQLVESGGGLVQAGGSLRLSCAASGRTFRPYAMGWYRQAPGKERELVARITSGGGRTYYADSVKGRFTISRDNAKNTVYLQMNSLKPEDTAVYYCNKAIYSLYRDGYTNFDYWGQGTQVTVSS | high polyreactivity |
| QVQLVESGGGLDQAGCSLRLSCAASGRIFPYMGWYRQAPGKDRELVAAINASGGRTYYADSVKGRFTISRDNAKNTVYLQMNSLKPEDTAVYYCNAVWSSDTYTHPQYDYWGQGTQVTVSS | high polyreactivity |
| QVQLVESGGGLVQAGGSLRLSCAASGLTFYSYAMGWSRQAPGKERELVAAISKSGGSTFYADSVKGRFTISRDNAKNTVYLQMNSLKPEDTAVYYCNARRRHEGSPPYGYWGQGTQVTVSS | high polyreactivity |
| QVQLVESGGGLVQAGGSLRLSCAASGRIFTTNAMGWYRQAPGIERELVAAITYSGGTTYYADSVKGRFTISRDNAKNTVYFQMNSLKPEDTAVYYCAADVKFSPPYDYWGQGTQVTVSS | low polyreactivity |

Source: the nanobody polyreactivity screen of Harvey et al. (2022)
